# protocolNotes: Quantitative High-Throughput drug screen in 47 multiple myeloma cell lines against the NCATS MIPE library collection: KMS34_JCRB cell viability assay (AID 1918985); note: nearly all actives have a fitted effect of over 40% in size
# appliedConditions: KMS34 myeloma viability, CellTiter-Glo ATP luminescence, 48 h; series mostly up to 45.8 µM
Results filed as inconclusive are left out. The source made the active and inactive calls. Calls come from the whole dose curve; as a rule, active = well fitted cell-killing curve with a large enough effect; inconclusive = small, poorly fitted or top-dose-only effect, or effect the other way; inactive = no such curve, though single readings can be large or run the other way.
Select the matching outcome among TRUE for active, FALSE for inactive

// below: answered compounds
- O=C1C(c2c(O)[nH]c3ccccc23)=Nc2ccccc21: TRUE
- CN1CCc2c(n(Cc3ccc(C(=O)NO)cc3)c3ccccc23)C1: TRUE
- Nc1ncnc2c1ncn2[C@@H]1O[C@H](CO)[C@@H](O)[C@@H]1O: TRUE
- CC1=C[C@@H]2[C@@H]([C@@H](O)C[C@@]3(C)[C@H]2C[C@@H](C)[C@]3(O)C(=O)CO)[C@@]2(C)Cc3cnn(-c4ccccc4)c3C=C12: TRUE
- O=C(Nc1ncc(SCCN2CCCC2)s1)[C@]1(c2ccc(S(=O)(=O)C3CC3)cc2)C[C@@H]1C1CCCCC1: TRUE
- COC(=O)N1CCN(Cc2cccc(NC(=O)Nc3ccc(C)nc3)c2F)CC1: FALSE

query: Hi team, can someone confirm the assay call for Cc1[nH]c(C=C2C(=O)Nc3ccc(S(=O)(=O)N(C)c4cccc(Cl)c4)cc32)c(C)c1C(=O)N1CCN(C)CC1 ?
result: TRUE

query: Hi team, can someone confirm the assay call for CCN(CC)CCCCNc1nc2cc(Cl)c(Cl)cc2nc1-c1ccc(-c2cccs2)s1 ?
result: TRUE

query: Hi team, can someone confirm the assay call for C[C@]12CC[C@@H]3c4ccc(O)cc4CC[C@H]3[C@H]1[C@@H](O)[C@@H](O)[C@H]2O ?
result: FALSE

query: Hi team, can someone confirm the assay call for Cc1ccc(C(=O)N(CCCN)[C@@H](c2nc3cc(Cl)ccc3c(=O)n2Cc2ccccc2)C(C)C)cc1 ?
result: FALSE

query: Hi team, can someone confirm the assay call for CC(=O)Nc1cccc(-n2c(=O)n(C3CC3)c(=O)c3c(Nc4ccc(I)cc4F)n(C)c(=O)c(C)c32)c1 ?
result: FALSE

query: Hi team, can someone confirm the assay call for COc1ccc(-c2nc3ccc(C4=NNC(=O)CC4C)cc3[nH]2)cc1 (centres undefined) ?
result: FALSE

query: Hi team, can someone confirm the assay call for COc1cc([C@@H]2c3cc4c(cc3[C@@H](O[C@@H]3O[C@@H]5CO[C@@H](C)O[C@@H]5[C@H](O)[C@@H]3O)[C@H]3COC(=O)[C@H]23)OCO4)cc(OC)c1O ?
result: TRUE

query: Hi team, can someone confirm the assay call for CCCCc1ccc(NS(=O)(=O)c2ccc(C)c(C(=O)N3CCN(c4cccc(C)c4C)CC3)c2)cc1 ?
result: TRUE

query: Hi team, can someone confirm the assay call for OC[C@H]1O[C@@H](O[C@H]2[C@@H](O)[C@@](O)(CO)O[C@@H]2CO)[C@H](O)[C@@H](O)[C@@H]1O ?
result: FALSE

query: Hi team, can someone confirm the assay call for C[C@@H]1[C@H](C)CC[C@]2(C(=O)O)CC[C@]3(C)C(=CC[C@@H]4[C@@]5(C)CC[C@H](O)C(C)(C)[C@H]5CC[C@]43C)[C@@H]12 ?
result: TRUE

query: Hi team, can someone confirm the assay call for Cc1ccccc1C(C(=O)NC1CCCCC1)N(C(=O)CNc1ccc(C#N)cc1)c1cccc(F)c1 (centres undefined) ?
result: FALSE

query: Hi team, can someone confirm the assay call for C[C@@H](N)c1ccc(C(=O)Nc2ccnc3[nH]ccc23)cc1 ?
result: TRUE
